The origin of these recorded values is patent US20220080036A1.

Molecular target: T1, IsdA (iron-regulated surface determinant protein A), recombinant (Staphylococcus aureus, UniProt P0C1S5 58-316)
T1 construct: also called recombinant IsdA; Isd antigen
T1 chain: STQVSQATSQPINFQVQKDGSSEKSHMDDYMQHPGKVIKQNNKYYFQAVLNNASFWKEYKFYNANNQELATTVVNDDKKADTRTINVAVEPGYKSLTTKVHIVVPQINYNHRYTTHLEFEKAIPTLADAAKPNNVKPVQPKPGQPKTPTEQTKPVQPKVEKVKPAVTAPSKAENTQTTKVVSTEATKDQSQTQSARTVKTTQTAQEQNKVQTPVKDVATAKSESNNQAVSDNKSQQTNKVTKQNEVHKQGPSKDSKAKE
Test: ELISA on coated recombinant antigen, half-maximal binding
Hi there, I'd appreciate the recorded EC50 for every entry that follows.
Answers are plain numbers, in µg/mL.

Sample answers from the record:
STAU-218 (antibody, V domains shown) VH: QVTLKESGPVVVKPTETLTLTCTVSDVSLRNVQMGVSWIRQPPGKALEWLAHIFSHDEKAYVTSLENRLTISRDTSNSQVVLTMTNMDPVDTGTYYCARIRSTSGEEEDPFAFWGQGTLVTVSS VL: DIQMTQSPSSLSASVGDRVTITCRASQSVTTWLAWYQQKPGKAPKLLIYSASSLESGVPSRFSGSGSGTDFTLTISNLQPDDFATYYCQQYRFYWTFGQGTKVESK :: 0.08
STAU-399 (antibody, V domains shown) VH: QVQLVQSGAEVKKPGSSLKVSCKVSGGNLRSYGISWVRQAPGQGLEWMGVIIPIFGTPTYAQKFQGRVTLAADDSNNIVFMELSSLRSEDTAVYYCARDWPSITVAVDATNYGMDVWGQGTLVTVSS VL: QSALTQPRSVSGSPGQSVTISCTGTSNDVGYYDHVSWYQQHPGKAPKFIIYDVSKRPSGVPDRFSGSKSDNTASLTISGLQAEDEADYYCCSFAGSYTYVFGTGTKVTVL :: 8.7

// input: 6 binders below; output: EC50 for each
1. STAU-229 (antibody, V domains shown) VH: EVQLVQSGAEVKKPGATMKISCKVSGYPFTDYYMHWVQQAPGKGLEWMGLIDPEDGETNYAEKFQGRVTITADTSTDTVYMELSSLRSEDTAVYFCAKPHCSSRTCQRVSGYYFGMDVWGQGTLVTVSS VL: QSALTQPPSASGSPGQSVTISCTGSSNDVGDYNFVSWYQQHPGKPPKLMIYEVTKRPSGVPDRFFGSKSGNTASLTVSGLQADDEADYYCSSYAGGNSVVFGGGTKLTVL
2. STAU-401 (antibody, V domains shown) VH: QVQLVQSGPEARKPGTSVKVSCKTSGYTFSSYGIAWVRQAPGQGLEWMGWISGYSDYTIYAQRLQGRVSMTTDPYTSTAYMELRSLRPDDTAVYYCATLSFGELVENKLDFWGQGTLVTVSS VL: QSVLTQPPSVSGAPGQRVTISCTGTSSNIGADYAVHWYQQLPGTAPKLLIYGTINRPSGVPDRFSGSRSGTSASLAITGLQADDEADYYCQSYDSSLSGSVVFGGGTKLTVL
3. STAU-407 (antibody, V domains shown) VH: QLQLQESGPGLVKPSETLSLTCSVSGGSISRTYYYWDWIRQPPGKGLEWIGSVYYSGSTYYNPSLKSRVTMSVDTSKNLFSLKLSSVTAADTAVYYCASHESWQQLISWGQGTLVTVSS VL: QAVLTQPSSLSASPGASASLTCTLRSGINVGIYRIYWYQQKPGSPPQYLLRYKSDSDKHQGSGVPSRFSGSKDASANAGILLISGLQSEDEADYYCMIWHSSAVAFGGGTKLTVL
4. STAU-307 (antibody, V domains shown) VH: QVQLVQSGAEVKKTGSSVKVSCTASGATFNTNDLMWVRQAPGQGLEWMGGIVPVFGRPKYAKKFHGRLIISADEFTTTFYMELTSLTFDDTAIYYCARSGSTESPIQHIDFWGQGTLVTVSS VL: SYVLTQPPSVSVAPGQTATITCGGDNIATFSVHWYRQKPGQAPVLVVYDDLDRASGIPARFSGSNSGNTATLTISRVEPGDEADYFCQVWEISSDEYVFGPGTSVTVL
5. STAU-402 (antibody, V domains shown) VH: QLQLQESGPGLVKPSETLSLTCTVSGGSISSSSYYWGWIRQPPGKGLEWIGSIYYSGSTYYNPSLKSRVTISVDTSKNQFSLKLSSVTAADTAVYYCARPNSSGWSYYFDYWGQGTLVTVSS VL: QSVLTQPPSVSGAPGQRVTISCTGTSSNIGADYDVHWYQQLPGTAPKLLIYGNINRPSGVPDRFSGSRSGTSASLAITGLQADDEADYYCQSYDSSLSGSVVFGGGTKLTVL
6. STAU-239 (antibody, V domains shown) VH: QVQLVQSGAEVKKPGSSVKVSCRASGGPFNTYVITWVRQAPGQGLEWMGGIVPVFNTSHSAQKFQGRVKISADTSTNTVYMELTSLTFEDTAVYFCARDGAAAPLNWYDPWGQGTLVTVSS VL: SYVLTQPPSVSLAPGQTATLTCGGNNIGSKSVHWYQKKPGQAPVLVVYDVRDRPSGIPERFSGSSSENTATLTLSRVEAEDEADYYCQVWESTTSHVIFGGGTKLTVL

Return:
1. 0.7
2. 25.1
3. 1.6
4. 0.01
5. 8.2
6. 0.07
